# protocol_notes: Cytotoxicity determination in HepG2.2.15 cells (CCK-8)
# Assay type: cell-based
# run_parameters: human, HepG2.2.15 cells, HepG2.2.15 cells, 5,000 cells/well, 6 days of compound treatment, CCK-8 absorbance 450 nm, highest concentration 100 uM
Collected CC50 at 6 days values appear next to each entry.
Numeric answer only, unit µM assumed.

INSERT INTO measurements (molecule, numeric_readout) VALUES
  ('COC(=O)C1=C(C2CCc3nn(CCC(=O)O)cc3C2)NC(c2nccs2)=NC1c1cccc(F)c1Cl (single isomer, unassigned) [Compound 44b]', 21),
  ('CCOC(=O)C1=C(C2CCc3nc(CCC(=O)O)sc3C2)NC(c2nccs2)=NC1c1ccc(F)c(F)c1Cl (single isomer, unassigned) [Compound 60b]', 3.4),
  ('CCOC(=O)C1=C(C2CCc3nn(CCCC(=O)O)cc3C2)NC(c2nccs2)=NC1c1ccc(F)c(F)c1Cl (single isomer, unassigned) [Compound 50b]', 12.6),
  ('CCOC(=O)C1=C(C2CCc3oc(CCC(=O)O)nc3C2)NC(c2nccs2)=NC1c1ccc(F)c(F)c1Cl (single isomer, unassigned) [Compound 57c]', 7.7),
  ('COC(=O)C1=C(C2CCc3nn(CCC(=O)O)cc3C2)NC(c2nccs2)=NC1c1ccc(F)c(F)c1C (stereo not drawn) [Compound 76c]', 16.1);

Now for another entry.
CC50 at 6 days reported for this molecule CCOC(=O)C1=C(C2CCc3cn(CCC(=O)O)c(C#N)c3C2)NC(c2nccs2)=NC1c1ccc(F)c(F)c1Cl (stereo not drawn) : 5.1
